tgt: NmGNAT (Nakamurella multipartita)
Sequence (C8XEF8 1-164): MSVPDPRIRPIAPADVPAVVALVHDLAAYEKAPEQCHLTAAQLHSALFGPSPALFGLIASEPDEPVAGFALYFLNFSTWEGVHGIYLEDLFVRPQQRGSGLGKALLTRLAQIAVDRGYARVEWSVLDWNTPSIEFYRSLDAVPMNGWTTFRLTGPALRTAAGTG
experimental_readout: pKd
Notebook: values listed as pKd are -log10 of the concentration (mol/L).

Ask | # lookup: pKd of CC(=O)SCCNC(=O)CCNC(=O)[C@H](O)C(C)(C)COP(=O)(O)OP(=O)(O)OC[C@H]1O[C@@H](n2cnc3c(N)ncnc32)[C@H](O)[C@@H]1OP(=O)(O)O
Reply | 4.72

Ask | Field request: pKd | item: NCCCC[C@H](N)C(=O)O
Reply | 3.86
